Cited source: ChEMBL document CHEMBL5338818

Assay: Observed clearance in ICR mouse at 2 mg/kg, iv measured upto 24 hrs by LC-M/MS analysis
Assay type: ADME, organism-based
Conditions: in vivo
QUANTITY: clearance (mL/min/kg)
Express the result in mL/min/kg but write the number alone.

Returns the measured clearance for the input molecule. Input: Cc1cc(Nc2nc(NCc3ccc(F)cc3F)nc3c2cnn3C2CCN(C(=O)C3CCN(c4ccc5c(c4)C(=O)N(C4CCC(=O)NC4=O)C5=O)CC3)CC2)n[nH]1 (stereo unspecified)
34.9

----------
Experiment: Stability in human plasma assessed as half life at 100 uM after 120 mins by LC-MS/MS analysis
Type: ADME, cell-free
QUANTITY: half-life at 100 µM (min)
Form entry: value (min) — number only.

// lookup half-life at 100 µM for CC(C)[N+](C)(CCOC(=O)C1c2ccccc2Oc2ccccc21)C(C)C.[Br-] [PROPANTHELINE BROMIDE]
19.8

----------
Experiment: Metabolic stability in mouse liver microsomes assessed as compound remaining at 100 uM incubated for 60 mins in presence of NADPH by LC-MS/MS analysis
Type: ADME, Microsome
Conditions: read-out: Stability
QUANTITY: remaining at 1 h, 100 µM (%)
Please reply with the bare figure in % and do not write the unit itself.

Recorded remaining at 1 h, 100 µM for Cc1cc(Nc2nc(NCc3ccc(F)cc3F)nc3c2cnn3C2CCN(C(=O)C3CCN(c4ccc5c(c4)C(=O)N(C4CCC(=O)NC4=O)C5=O)CC3)CC2)n[nH]1 (stereo unspecified) , please?
56.4

----------
A collection of compounds and their measured Activity
Biological target: Protein cereblon/Serine/threonine-protein kinase PLK4 (Homo sapiens, UniProt O00444+Q96SW2)
Sequence (O00444 whole entry, looked up): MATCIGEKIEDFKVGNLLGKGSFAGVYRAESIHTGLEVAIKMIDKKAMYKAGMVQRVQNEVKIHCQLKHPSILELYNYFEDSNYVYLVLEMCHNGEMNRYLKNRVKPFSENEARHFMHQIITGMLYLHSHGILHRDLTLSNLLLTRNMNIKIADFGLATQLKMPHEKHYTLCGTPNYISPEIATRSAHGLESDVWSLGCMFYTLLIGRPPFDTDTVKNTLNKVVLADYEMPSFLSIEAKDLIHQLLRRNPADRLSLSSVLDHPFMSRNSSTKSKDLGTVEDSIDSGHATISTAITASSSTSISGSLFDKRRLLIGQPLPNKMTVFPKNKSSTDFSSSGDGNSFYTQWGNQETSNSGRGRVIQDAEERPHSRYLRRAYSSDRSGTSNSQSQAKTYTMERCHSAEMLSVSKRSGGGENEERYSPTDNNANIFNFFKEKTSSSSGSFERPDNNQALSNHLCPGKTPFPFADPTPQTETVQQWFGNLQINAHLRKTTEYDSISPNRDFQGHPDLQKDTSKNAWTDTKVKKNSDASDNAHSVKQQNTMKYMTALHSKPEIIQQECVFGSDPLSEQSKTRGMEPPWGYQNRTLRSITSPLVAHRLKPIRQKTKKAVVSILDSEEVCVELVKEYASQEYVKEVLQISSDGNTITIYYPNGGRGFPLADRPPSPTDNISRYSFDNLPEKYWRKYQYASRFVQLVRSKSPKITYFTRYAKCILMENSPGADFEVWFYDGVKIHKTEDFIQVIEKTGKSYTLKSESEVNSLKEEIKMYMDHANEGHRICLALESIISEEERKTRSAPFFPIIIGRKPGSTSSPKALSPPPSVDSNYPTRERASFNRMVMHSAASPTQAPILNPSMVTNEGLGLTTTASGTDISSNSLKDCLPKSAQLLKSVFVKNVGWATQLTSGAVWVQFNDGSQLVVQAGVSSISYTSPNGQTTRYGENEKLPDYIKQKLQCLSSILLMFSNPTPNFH
Sequence (Q96SW2 whole entry, looked up): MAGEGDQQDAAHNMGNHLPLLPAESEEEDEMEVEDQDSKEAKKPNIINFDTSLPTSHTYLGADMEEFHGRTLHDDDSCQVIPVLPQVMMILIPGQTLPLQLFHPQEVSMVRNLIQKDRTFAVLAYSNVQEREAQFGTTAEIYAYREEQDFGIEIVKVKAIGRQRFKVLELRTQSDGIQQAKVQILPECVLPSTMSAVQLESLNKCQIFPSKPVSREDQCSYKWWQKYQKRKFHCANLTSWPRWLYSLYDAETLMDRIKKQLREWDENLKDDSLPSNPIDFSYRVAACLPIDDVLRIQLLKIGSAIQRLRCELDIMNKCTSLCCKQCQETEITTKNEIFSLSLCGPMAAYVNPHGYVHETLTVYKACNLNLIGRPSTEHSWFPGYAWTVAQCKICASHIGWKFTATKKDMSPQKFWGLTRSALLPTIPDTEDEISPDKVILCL
Experiment: Protac activity at CRBN/PLK4 in human MCF7 cells at 1 uM incubated for 48 hrs by Western blot analysis
Assay type: cell-based
Write the answer as a number in %, unit excluded.

[
  {
    "COMPOUND": "Cc1cc(Nc2nc(NCc3ccc(F)cc3F)nc3c2cnn3C2CCN(C(=O)CCCCOc3ccc4c(c3)C(=O)N(C3CCC(=O)NC3=O)C4=O)CC2)n[nH]1 (configuration not stated)",
    "Activity, %": 56.8
  },
  {
    "COMPOUND": "Cc1cc(Nc2nc(NCc3ccc(F)cc3F)nc3c2cnn3C2CCN(C(=O)CCCCCOc3ccc4c(c3)C(=O)N(C3CCC(=O)NC3=O)C4=O)CC2)n[nH]1 (configuration not stated)",
    "Activity, %": 46.7
  },
  {
    "COMPOUND": "Cc1cc(Nc2nc(NCc3ccc(F)cc3F)nc3c2cnn3C2CCN(C(=O)CCCCCCCOc3ccc4c(c3)C(=O)N(C3CCC(=O)NC3=O)C4=O)CC2)n[nH]1 (configuration not stated)",
    "Activity, %": 38.9
  }
]

Form field: reported Activity of Cc1cc(Nc2nc(NCc3ccc(F)cc3F)nc3c2cnn3C2CCN(CC3CC4(C3)CN(c3ccc5c(c3)C(=O)N(C3CCC(=O)NC3=O)C5=O)C4)CC2)n[nH]1 (configuration not stated)
6.07

I have this compound here, Cc1cc(Nc2nc(NCc3ccc(F)cc3F)nc3c2cnn3C2CCN(C(=O)C3CCN(c4ccc5c(c4)C(=O)N(C4CCC(=O)NC4=O)C5=O)C3)CC2)n[nH]1 (configuration not stated) , and I need its recorded Activity.
56.1

Report Activity for Cc1cc(Nc2nc(NCc3ccc(F)cc3F)nc3c2cnn3C2CCN(C(=O)COc3ccc4c(c3)C(=O)N(C3CCC(=O)NC3=O)C4=O)CC2)n[nH]1 (configuration not stated) please.
28.5

Request the reported Activity associated with Cc1cc(Nc2nc(NCc3ccc(F)cc3F)nc3c2cnn3C2CCN(C(=O)CC3CN(c4ccc5c(c4)C(=O)N(C4CCC(=O)NC4=O)C5=O)C3)CC2)n[nH]1 (configuration not stated)
70.4

----------
Experiment: Stability in human plasma assessed as compound remaining at 100 uM after 120 mins by LC-MS/MS analysis (reference value: 100%)
Format: ADME, cell-free
Settings: read-out: Stability
QUANTITY: remaining at 2 h, 100 µM (%)
Respond with the bare value in %.

Sample Cc1cc(Nc2nc(NCc3ccc(F)cc3F)nc3c2cnn3C2CCN(C(=O)C3CCN(c4ccc5c(c4)C(=O)N(C4CCC(=O)NC4=O)C5=O)CC3)CC2)n[nH]1 (stereo unspecified) — what was its remaining at 2 h, 100 µM?
69.9

----------
Molecular target: Protein cereblon/Serine/threonine-protein kinase PLK4 (Homo sapiens, UniProt O00444+Q96SW2)
Test: Protac activity at CRBN/PLK4 in human MCF7 cells at 1 uM incubated for 48 hrs by Western blot analysis
Type: cell-based
Records here are stratified by Activity; strata: bin 1 (below 10%), bin 2 (10% to below 50%), bin 3 (50% or more)

The following compounds have reported results that may help.
[
  {
    "COMPOUND": "Cc1cc(Nc2nc(NCc3ccc(F)cc3F)nc3c2cnn3C2CCN(C(=O)Cc3ccc(N4CCN(c5ccc6c(c5)C(=O)N(C5CCC(=O)NC5=O)C6=O)CC4)cc3)CC2)n[nH]1 (centres undefined)",
    "ASSIGNED_CATEGORY": "bin 3"
  },
  {
    "COMPOUND": "Cc1cc(Nc2nc(NCc3ccc(F)cc3F)nc3c2cnn3C2CCN(C(=O)C3CN(c4ccc5c(c4)C(=O)N(C4CCC(=O)NC4=O)C5=O)C3)CC2)n[nH]1 (centres undefined)",
    "ASSIGNED_CATEGORY": "bin 3"
  }
]

Now take the following compound into account.
Bin? Cc1cc(Nc2nc(NCc3ccc(F)cc3F)nc3c2cnn3C2CCN(C(=O)COCCOc3ccc4c(c3)C(=O)N(C3CCC(=O)NC3=O)C4=O)CC2)n[nH]1 (centres undefined)
bin 1

----------
Experiment: Observed volume of distribution at steady state in ICR mouse at 2 mg/kg, iv measured upto 24 hrs by LC-M/MS analysis
Format: ADME, organism-based
Conditions: in vivo, read-out: Vdss
QUANTITY: Vd (L/kg)
Output spec: scalar in L/kg, unitless text.

# Vd lookup, item Cc1cc(Nc2nc(NCc3ccc(F)cc3F)nc3c2cnn3C2CCN(C(=O)C3CCN(c4ccc5c(c4)C(=O)N(C4CCC(=O)NC4=O)C5=O)CC3)CC2)n[nH]1 (stereo unspecified)
16.3

----------
Experiment: AUClast in ICR mouse at 20 mg/kg, ip measured upto 24 hrs by LC-M/MS analysis
Type: ADME, organism-based
Design: dose 20 mg/kg, time < 24 hrs, route ip
Conditions: in vivo
QUANTITY: AUC(0-t) at 24 h
Units required after the number.

Sample Cc1cc(Nc2nc(NCc3ccc(F)cc3F)nc3c2cnn3C2CCN(C(=O)C3CCN(c4ccc5c(c4)C(=O)N(C4CCC(=O)NC4=O)C5=O)CC3)CC2)n[nH]1 (stereo unspecified) — what was its AUC(0-t) at 24 h?
14000 ng·h/mL

----------
Molecular target: Protein cereblon/Serine/threonine-protein kinase PLK4 (Homo sapiens, UniProt O00444+Q96SW2)
Experiment: Protac activity at CRBN/PLK4 in human MCF7 cells at 1 uM incubated for 48 hrs by Western blot analysis
Type: cell-based
Attribute: Activity
Write it as a number; the unit % goes unstated.

[
  {
    "COMPOUND": "Cc1cc(Nc2nc(NCc3ccc(F)cc3F)nc3c2cnn3C2CCN(C(=O)COCCOCCOc3ccc4c(c3)C(=O)N(C3CCC(=O)NC3=O)C4=O)CC2)n[nH]1 (stereo not drawn)",
    "Activity, %": 30.3
  }
]

Which measured Activity value corresponds to Cc1cc(Nc2nc(NCc3ccc(F)cc3F)nc3c2cnn3C2CCN(Cc3ccc(C4CCN(c5ccc6c(c5)C(=O)N(C5CCC(=O)NC5=O)C6=O)CC4)cc3)CC2)n[nH]1 (stereo not drawn) ?
3.11

Look up Activity: Cc1cc(Nc2nc(NCc3ccc(F)cc3F)nc3c2cnn3C2CCN(CC3CN(c4ccc5c(c4)C(=O)N(C4CCC(=O)NC4=O)C5=O)C3)CC2)n[nH]1 (stereo not drawn)
31.1

----------
Experiment: Metabolic stability in human liver microsomes assessed as compound remaining at 100 uM incubated for 60 mins in presence of NADPH by LC-MS/MS analysis
Format: ADME, Microsome
Conditions: read-out: Stability
QUANTITY: remaining at 1 h, 100 µM

Quick one: remaining at 1 h, 100 µM of Cc1cc(Nc2nc(NCc3ccc(F)cc3F)nc3c2cnn3C2CCN(C(=O)C3CCN(c4ccc5c(c4)C(=O)N(C4CCC(=O)NC4=O)C5=O)CC3)CC2)n[nH]1 (stereo unspecified) ?
51.7%

----------
Assay: Bioavailability in ICR mouse at […] measured upto 24 hrs by LC-M/MS analysis
Type: ADME, organism-based
Conditions: in vivo
QUANTITY: bioavailability (%)
Kindly provide the numeric value in % only, without the unit symbol.

Given the entry Cc1cc(Nc2nc(NCc3ccc(F)cc3F)nc3c2cnn3C2CCN(C(=O)C3CCN(c4ccc5c(c4)C(=O)N(C4CCC(=O)NC4=O)C5=O)CC3)CC2)n[nH]1 (stereo unspecified) , report its measured bioavailability.
149
